System: Flt-1 receptor
Sequence (P17948 27-327 limits assumed): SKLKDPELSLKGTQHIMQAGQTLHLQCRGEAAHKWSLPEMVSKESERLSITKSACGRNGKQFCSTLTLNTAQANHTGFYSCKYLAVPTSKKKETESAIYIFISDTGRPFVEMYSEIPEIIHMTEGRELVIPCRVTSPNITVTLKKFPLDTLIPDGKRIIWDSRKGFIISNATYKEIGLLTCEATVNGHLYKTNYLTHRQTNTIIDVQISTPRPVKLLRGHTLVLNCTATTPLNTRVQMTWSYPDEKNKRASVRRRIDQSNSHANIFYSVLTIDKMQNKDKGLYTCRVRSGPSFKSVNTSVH
experiment-description: Flt-1 receptor binding ELISA (inhibition of biotinylated native VEGF binding to Flt-IgG)
condition-summary: second figure of the cell, ratio to native VEGF (8-109)

| molecule | Relative Binding Affinity FLT-1 Receptor |
| --- | --- |
| LK-VRB-9s: VEGF (1-109) variant, Q22R/D63S/G65M/L66R (protein) APMAEGGGQNHHEVVKFMDVYRRSYCHPIETLVDIFQEYPDEIEYIFKPSCVPLMRCGGCCNSEMRECVPTEESNITMQIMRIKPHQGQHIGEMSFLQHNKCECRPKKD | /300 |
